Target: urease (Canavalia ensiformis, UniProt P07374)
Sequence (P07374 whole entry, looked up): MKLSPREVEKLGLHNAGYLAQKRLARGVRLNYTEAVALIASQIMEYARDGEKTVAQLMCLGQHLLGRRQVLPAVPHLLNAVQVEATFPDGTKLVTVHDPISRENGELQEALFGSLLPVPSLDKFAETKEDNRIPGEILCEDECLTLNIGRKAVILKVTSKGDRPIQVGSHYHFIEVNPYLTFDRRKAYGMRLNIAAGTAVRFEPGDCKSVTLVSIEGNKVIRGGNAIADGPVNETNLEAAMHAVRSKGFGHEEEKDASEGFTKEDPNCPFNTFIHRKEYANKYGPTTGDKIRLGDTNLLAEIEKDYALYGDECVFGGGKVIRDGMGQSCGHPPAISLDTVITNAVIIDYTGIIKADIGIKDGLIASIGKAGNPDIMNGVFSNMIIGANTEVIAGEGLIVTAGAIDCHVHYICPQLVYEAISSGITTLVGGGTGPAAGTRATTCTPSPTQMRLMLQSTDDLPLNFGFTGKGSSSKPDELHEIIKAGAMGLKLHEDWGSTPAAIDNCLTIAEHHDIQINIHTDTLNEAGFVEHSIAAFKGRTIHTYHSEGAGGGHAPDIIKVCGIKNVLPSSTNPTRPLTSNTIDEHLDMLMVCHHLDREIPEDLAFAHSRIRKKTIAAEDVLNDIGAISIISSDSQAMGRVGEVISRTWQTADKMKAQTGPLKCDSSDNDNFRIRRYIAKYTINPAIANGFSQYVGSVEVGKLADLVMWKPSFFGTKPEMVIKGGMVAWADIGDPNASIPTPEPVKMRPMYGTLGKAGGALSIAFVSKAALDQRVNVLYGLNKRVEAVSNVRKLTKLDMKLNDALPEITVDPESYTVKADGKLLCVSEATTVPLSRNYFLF
Test: biochemical
Details: urease 5 U/mL, 30 min at 37 °C, pH 8.15, triplicate; read-out: IC50 ± SEM
pIC50: −log10 of the molar value.
value.type: pIC50

compound="NC(N)=S [Thiourea, reference compound]" value=4.72

---

Target: urease (Canavalia ensiformis)
Experiment: biochemical
pIC50: −log10 of the molar value.
value.type: pIC50

compound_structure=Cc1cccc(/C=N/NC(N)=O)n1 measured_on="urease (Canavalia ensiformis)" value=5.47
compound_structure=NC(=S)N/N=C/c1cccc(C(F)(F)F)n1 measured_on="urease (Canavalia ensiformis)" value=5.31
compound_structure=COc1cccc(/C=N/NC(N)=S)n1 measured_on="urease (Canavalia ensiformis)" value=5.38
compound_structure=N/C(S)=N/N=C/c1ccccn1 measured_on="urease (Canavalia ensiformis)" value=5.49
compound_structure=NC(=O)N/N=C/c1cccc(C(F)(F)F)n1 measured_on="urease (Canavalia ensiformis)" value=5.22
compound_structure=COc1cccc(/C=N/NC(N)=O)n1 measured_on="urease (Canavalia ensiformis)" value=5.26
compound_structure=NC(=S)N/N=C/c1ccc(Cl)cn1 measured_on="urease (Canavalia ensiformis)" value=5.97
compound_structure=NC(=O)N/N=C/c1ccc(Cl)cn1 measured_on="urease (Canavalia ensiformis)" value=5.39
compound_structure=NC(=O)N/N=C/c1cccc(Br)n1 measured_on="urease (Canavalia ensiformis)" value=4.84
compound_structure=Cc1cccc(/C=N/NC(N)=S)n1 measured_on="urease (Canavalia ensiformis)" value=5.19
compound_structure=NC(=S)N/N=C/c1cccc(Br)n1 measured_on="urease (Canavalia ensiformis)" value=5.50
compound_structure=NC(=O)N/N=C/c1ccccn1 measured_on="urease (Canavalia ensiformis)" value=5.66

---

value.type: melting point

compound_structure=NC(=S)N/N=C/c1cccc(Br)n1 value_type="melting point" value="192 to 194 °C"
compound_structure=COc1cccc(/C=N/NC(N)=O)n1 value_type="melting point" value="193 °C"
compound_structure=NC(=O)N/N=C/c1cccc(C(F)(F)F)n1 value_type="melting point" value="233 to 235 °C"
compound_structure=NC(=O)N/N=C/c1ccc(Cl)cn1 value_type="melting point" value="221 to 223 °C"
compound_structure=NC(=O)N/N=C/c1cccc(Br)n1 value_type="melting point" value="231 to 233 °C"
compound_structure=Cc1cccc(/C=N/NC(N)=O)n1 value_type="melting point" value="218 to 219 °C"
compound_structure=NC(=S)N/N=C/c1ccc(Cl)cn1 value_type="melting point" value="244 to 246 °C"
